Where these numbers come from: paper PMC5216056

- tested on: hCB1R (Homo sapiens, UniProt P21554)
- Construct: host or cells: CHO
- Sequence (P21554 whole entry): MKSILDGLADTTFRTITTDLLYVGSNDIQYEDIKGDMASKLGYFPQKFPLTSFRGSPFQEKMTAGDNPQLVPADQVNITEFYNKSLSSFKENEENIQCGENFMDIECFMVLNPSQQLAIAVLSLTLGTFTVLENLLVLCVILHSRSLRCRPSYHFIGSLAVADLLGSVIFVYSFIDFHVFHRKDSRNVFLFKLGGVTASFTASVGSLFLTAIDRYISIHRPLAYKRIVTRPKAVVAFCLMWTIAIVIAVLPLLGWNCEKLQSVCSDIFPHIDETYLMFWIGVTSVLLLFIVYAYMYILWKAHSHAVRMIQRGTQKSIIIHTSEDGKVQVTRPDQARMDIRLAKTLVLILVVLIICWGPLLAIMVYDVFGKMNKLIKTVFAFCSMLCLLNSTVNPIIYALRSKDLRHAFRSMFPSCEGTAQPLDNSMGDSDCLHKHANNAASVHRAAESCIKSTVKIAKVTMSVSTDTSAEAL
- test: biochemical
- Format: biochemical
Please provide measured pEC50 ± SEM GTPγS hCB1R for the entries that follow.

Answered cases to consult:
CN1CCCC[C@@H]1Cn1cc(C(=O)c2cc([N+](=O)[O-])ccc2I)c2ccccc21 [(R)-AM1241] : 6.78 ± 0.40
CCCC(C)(C)c1ccc2c(c1)OC(C)(C)[C@@H]1CC=C(C)C[C@@H]21 : 7.37 ± 0.16
CN1CCCC[C@H]1Cn1cc(C(=O)c2cc([N+](=O)[O-])ccc2I)c2ccccc21 [(S)-AM1241] : < 5

The following molecules each have a reported value; give each one's pEC50 ± SEM GTPγS hCB1R.
1. Cc1ccc2c(c1)Cc1c(C(=O)NN3CCCCC3)nn(-c3ccc(Cl)cc3Cl)c1-2
2. CCCCCCC(C)(C)c1cc(OC)c(C2=C[C@H]3CC[C@]2(CO)C3(C)C)c(OC)c1

Result:
1: < 5; 2: < 5

* * *

- tested on: norepinephrine transporter (h) (Homo sapiens)
- Construct: CEREP (contract assay)
- Sequence (P23975 whole entry): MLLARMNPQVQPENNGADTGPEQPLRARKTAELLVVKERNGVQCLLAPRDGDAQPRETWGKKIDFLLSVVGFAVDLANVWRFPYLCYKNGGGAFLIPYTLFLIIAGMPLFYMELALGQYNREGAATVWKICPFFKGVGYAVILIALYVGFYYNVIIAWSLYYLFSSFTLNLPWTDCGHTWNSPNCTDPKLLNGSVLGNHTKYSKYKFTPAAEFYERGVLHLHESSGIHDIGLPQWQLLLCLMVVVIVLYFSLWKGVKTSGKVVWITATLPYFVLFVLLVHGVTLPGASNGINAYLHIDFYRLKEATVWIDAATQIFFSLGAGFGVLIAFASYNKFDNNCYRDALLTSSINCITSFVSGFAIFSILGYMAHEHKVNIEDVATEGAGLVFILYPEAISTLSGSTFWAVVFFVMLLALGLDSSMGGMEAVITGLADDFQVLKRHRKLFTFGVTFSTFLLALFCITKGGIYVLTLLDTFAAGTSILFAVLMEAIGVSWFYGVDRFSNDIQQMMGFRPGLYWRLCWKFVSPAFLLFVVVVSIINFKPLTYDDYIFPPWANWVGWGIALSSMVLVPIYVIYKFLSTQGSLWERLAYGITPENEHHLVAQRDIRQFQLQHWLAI
- test: biochemical
- Assay type: binding
- measurement conditions: 10 µM
Outcome label depends on % inhibition norepinephrine transporter (h) relative to 30%: at/above gives rule met, below gives rule not met.

Use these answered entries as a reference point.
CCCC(C)(C)c1ccc2c(c1)OC(C)(C)[C@@H]1CC=C(C)C[C@@H]21 : rule not met
COc1ccc(C(=O)c2c(C)n(CCN3CCOCC3)c3cc(I)ccc23)cc1 : rule met
Cc1c(C(=O)c2cccc3ccccc23)c2cccc3c2n1[C@H](CN1CCOCC1)CO3 : rule met
CN1CCCC[C@H]1Cn1cc(C(=O)c2cc([N+](=O)[O-])ccc2I)c2ccccc21 [(S)-AM1241] : rule not met
CCCn1c(C)c(C(=O)c2cccc3ccccc23)c2ccccc21 : rule met
Cc1ccc2c(c1)Cc1c(C(=O)NN3CCCCC3)nn(-c3ccc(Cl)cc3Cl)c1-2 : rule met

Query: Is % inhibition norepinephrine transporter (h) at least 30%? Consider CCCCCCC(C)(C)c1cc(OC)c(C2=C[C@H]3CC[C@]2(CO)C3(C)C)c(OC)c1
Result: rule met

* * *

- tested on: Rat recombinant TRPV4 (Rattus norvegicus, UniProt Q9ERZ8)
- Sequence (Q9ERZ8 whole entry): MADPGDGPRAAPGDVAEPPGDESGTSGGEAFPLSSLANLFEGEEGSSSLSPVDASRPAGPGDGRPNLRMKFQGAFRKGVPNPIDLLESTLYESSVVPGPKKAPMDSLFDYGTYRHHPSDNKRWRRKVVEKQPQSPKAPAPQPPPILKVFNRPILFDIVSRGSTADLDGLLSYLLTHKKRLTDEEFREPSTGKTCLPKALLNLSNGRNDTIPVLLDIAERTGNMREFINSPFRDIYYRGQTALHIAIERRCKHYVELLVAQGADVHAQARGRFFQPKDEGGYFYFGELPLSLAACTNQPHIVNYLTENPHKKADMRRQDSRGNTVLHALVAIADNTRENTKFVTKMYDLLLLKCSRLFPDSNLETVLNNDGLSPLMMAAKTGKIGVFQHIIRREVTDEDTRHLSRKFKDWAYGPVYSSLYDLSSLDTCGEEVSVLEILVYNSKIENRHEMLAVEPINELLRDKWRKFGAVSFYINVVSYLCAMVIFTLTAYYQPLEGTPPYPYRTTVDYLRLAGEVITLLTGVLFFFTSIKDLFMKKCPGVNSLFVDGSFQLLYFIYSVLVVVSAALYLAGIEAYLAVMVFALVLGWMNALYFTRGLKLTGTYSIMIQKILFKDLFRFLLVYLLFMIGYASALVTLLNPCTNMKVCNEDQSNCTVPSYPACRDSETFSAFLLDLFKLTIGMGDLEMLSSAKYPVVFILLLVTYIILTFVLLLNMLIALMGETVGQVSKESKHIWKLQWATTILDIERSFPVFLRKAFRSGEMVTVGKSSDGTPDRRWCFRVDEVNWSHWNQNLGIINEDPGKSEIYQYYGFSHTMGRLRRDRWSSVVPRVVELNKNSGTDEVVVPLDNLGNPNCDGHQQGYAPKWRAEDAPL
- test: cell-based
- measurement conditions: vs 4αPDD 1μM; read-out: TRPV4 IC50 for desensitization
Please provide measured IC50 for the entries that follow.
Numbers only, in µM.

Answered cases to consult:
CN1CCCC[C@@H]1Cn1cc(C(=O)c2cc([N+](=O)[O-])ccc2I)c2ccccc21 [(R)-AM1241] : 8.7
Cc1c(C(=O)c2cccc3ccccc23)c2cccc3c2n1[C@H](CN1CCOCC1)CO3 : 16.1
CN1CCCC[C@H]1Cn1cc(C(=O)c2cc([N+](=O)[O-])ccc2I)c2ccccc21 [(S)-AM1241] : 8.6

The following molecules each have a reported value; give each one's IC50.
1. Cc1c(C(=O)NN2CCCCC2)nn(-c2ccc(Cl)cc2Cl)c1-c1ccc(Cl)cc1 [SR141716A]
2. Cc1ccc2c(c1)Cc1c(C(=O)NN3CCCCC3)nn(-c3ccc(Cl)cc3Cl)c1-2

Result:
2
2.2

* * *

- tested on: hCB2R (Homo sapiens)
- Sequence (P34972 whole entry): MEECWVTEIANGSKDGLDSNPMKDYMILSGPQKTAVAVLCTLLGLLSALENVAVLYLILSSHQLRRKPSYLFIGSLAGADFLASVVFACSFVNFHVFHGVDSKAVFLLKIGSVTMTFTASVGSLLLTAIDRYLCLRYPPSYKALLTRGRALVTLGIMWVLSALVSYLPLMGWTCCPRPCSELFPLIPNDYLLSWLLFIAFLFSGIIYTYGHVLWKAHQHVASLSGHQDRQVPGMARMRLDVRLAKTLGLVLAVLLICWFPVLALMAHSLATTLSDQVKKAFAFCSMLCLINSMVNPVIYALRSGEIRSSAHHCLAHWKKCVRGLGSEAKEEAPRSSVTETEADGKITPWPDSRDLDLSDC
- Parameters: expressed in transfected cells; host or cells: Flp-In-293 (Invitrogen #R750-07), pcDNA5/FRT
- measurement conditions: hCB2R, relative effectiveness
Please provide measured RE GTPγS for the entries that follow.
Give bare numbers.

Answered cases to consult:
CN1CCCC[C@H]1Cn1cc(C(=O)c2cc([N+](=O)[O-])ccc2I)c2ccccc21 [(S)-AM1241] : 0.04
CCCCC/C=C\C/C=C\C/C=C\C/C=C\CCCC(=O)NCCO [Anandamide, N-arachidonoylethanolamine] : 0.0002
CCCCCCC(C)(C)c1cc(OC)c(C2=C[C@H]3CC[C@]2(CO)C3(C)C)c(OC)c1 : 0.03

Proceeding to the next compound to report its RE GTPγS.
Query: Quote hCB2R (Homo sapiens) RE GTPγS for entry CN1CCCCC1Cn1cc(C(=O)c2cc([N+](=O)[O-])ccc2I)c2ccccc21 (racemic) [(rac)-AM1241] .
Result: 0.004
